Method: soluble on expression in E. coli; label from the status in PepcDB or PDB records
Measured metric: soluble on expression in E. coli

MSLYSENDISNSIKNGILYLEDPVNHEWYPHYFVLTSSKIYYSEETSSDQGNEDEEEPKEVSSSTELHSNEKWFHGKLGAGRDGRHIAERLLTEYCIETGAPDGSFLVRESETFVGDYTLSFWRNGKVQHCRIHSRQDAGTPKFFLTDNLVFDSLYDLITHYQQVPLRCNEFEMRLSEPVPQTNAHESKEWYHASLTRAQAEHMLMRVPRDGAFLVRKRNEPNSYAISFRAEGKIKHCRVQQEGQTVMLGNSEFDSLVDLISYYEKHPLYRKMKLRYPINEEALEKIGTAEPDYGALYEGRNPGFYVEANPMPTFKCAVKALFDYKAQREDELTFIKSAIIQNVEKQEGGWWRGDYGGKKQLWFPSNYVEEMVNEGHHHHHH ... soluble
MAHHHHHHMSARKFAGEYVSRHLDGLTVLASLADRPAAAKPVICTHNGSFHCDEAMACGLLRHVPEYREAVILRTRDPKQIDACDIVVDVGAIYDADTNRYDHHQASFHGTMTTPKKAYKTRLSSAGLVYKHFGRQIICEYVEAVLQPSSPARAAVLSMTSWSESRTGLSEAELDVLEDALYAHFVEQVDGIDNGVECWGLADPAVGTLVPNYTQSTSLSQRIGQLQAYWNEPENGDVVAENANFAVAVEMAVTEFFKALTYLSFSWLPARSIVEAAFQRRHEFDESGKIMVFKGVKACPWKDHLLELEAESNCLGAVLYVVFSDGKGWRVQAVPKTSTSFENRKPLPYRGLRDDALSAACGIEGGVFVHVSGFIGGMKTFDGAMALAKQALVVVN ... soluble

====

Method: soluble on expression in E. coli; label from the status in PepcDB or PDB records
Measured metric: soluble on expression in E. coli

MARNSTLTNLFLSTKRNMGRLISHIVKADDIDDIVQETFIKTYEADLKQEIKYVRSYMLKTAKNLALNHVARWDNKYNDSLEDFSQPPVQLTSGKVEDDYESKEQFLFFCRATDQLSGSVRKCFILKKVYGLSQKEIASYLNLSESTVEKHIAQGLLKSTKYIKRMNHGHSVKGAKQNHQVHSLQVKKTVLK ... not soluble
AHHHHHHGSEKQGEKMKRLGKVLHYAKQGFLIVRTNWVPSLNDRVVDKRLQFVGIVKDVFGPVKMPYVAIKPKVSNPEIYVGEVLYVDERKRKESPKKNKEKRMKKKKRLNR ... not soluble

====

Method: soluble on expression in E. coli; label from the status in PepcDB or PDB records
Measured metric: soluble on expression in E. coli

MAVSTVTGAAGIGLATLAADGSVLDTWFPAPELTESGTSATSRLAVSDVPVELAALIGRDDDRRTETIAVRTVIGSLDDVAADPYDAYLRLHLLSHRLVAPHGLNAGGLFGVLTNVVWTNHGPCAIDGFEAVRARLRRRGPVTVYGVDKFPRMVDYVVPTGVRIADADRVRLGAHLAPGTTVMHEGFVNYNAGTLGASMVEGRISAGVVVGDGSDVGGGASIMGTLSGGGTHVISIGKRCLLGANSGLGISLGDDCVVEAGLYVTAGTRVTMPDSNSVKARELSGSSNLLFRRNSVSGAVEVLARDGQGIALNEDLHANGVPRGLEHHHHHH ... soluble
GPGSMRNLVREGITPPVLVFVQSVERSKELYEEIRMEGLHMAIMHAKMTVEQREETVLQFRLGKIWVLVTTELLARGIDFKNVGTVINFDFPATVDSYIHRVGRTGRAGKEGTAITFFTEDDKERLPPIAKVMQDSGNAVEDWILGIKVDRSTRRRLERTTPQRTIVSTRKRMLVAQQRVQRQYRRLEAEKAAKQASKRSKGCGDCDRDDGDDSTDDA ... soluble
MNPPDISVLIVSFNTRDLLRRCLASLRDQAGGTGIETIVVDNASRDGSADMVEAEFPDVRLIRSPVNLGFGNANNLAFTQSRGRYLVLLNSDACLAPGLLDAASKRMDACPDVGMAGGRLVGPEGGWQPSARMFPSLLNEFLVLSGLAHRYPKSRLFGRFDRTWADPSEEAGVDWVPGAFAILRRDLIDRIGFFDPRFFLYYEEVDLCRRIRAAGCKIMYWPELVITHLGGESAKTLSDMEFSSHASQLTLWRMRSQALYYRKWHGLALAWSAKTLEQLWHWLRALRHRRSAPAKAHDSEALIRLWNRAWKETEGGRVSPPQPWLEHHHHHH ... not soluble
MNTRIKPVRSFLFVPGNKESMLDKAAQAGADALILDLEDSVPSPEKTAARELVAKKIPELIAQNQRIWVRINRTAHIYDLDDILAVAPAGIEGIYISKPGGPEDVYMASCMIAEAEARANLPLGSIGLIPLLETARSMQLCYDIAQMPRVAGIVGATARNADMGRALKFVWTAEGRETEYLKSRVVMAARAAGKQAIGGLWQQIKDLDGLAKSSAFDRQLGMSGELVLHPMQVETINRTYTPTAEDVAYYQGMIEALDAAQAQGRASVMYEGEHIDIAHVKTAHEVIALAQSFGN ... not soluble
MYQHDIGKRSAKVKNVVERGAVKKFAEAIGDPNPIYWDEETGKRSRYGRNIAPPTFPRVFDYGVIEGLKLPAKGLIHGEQHFHYERPLFVGEELYCYAEVKDYFEKQSSMGLLGFLVIANNGEDADGNLIFTSTSTIMINEAVRKAMSV ... soluble

# input for lookup
Kindly note the recorded soluble on expression in E. coli for MSELQNPKPSSLSRDAFIATYADIYEHSPWVAEQAFNQDAGPELDQLDTLHARLSDILLNATHAQQLALINAHPDLAGKAAVKGELTQASTDEQAGAGIHLCTPDEFQRFTELNGAYKARFGFPFIMAVKGSDRHKILAAFEQRIHHSPEAEFACALAEINKIALFRLQALHASQAAAALEHHHHHH , which is soluble
